target-or-test-system: N-TgCEN1 (N-terminal domain, 22–94 aa) (Toxoplasma gondii, UniProt A0A125YHX7)
Construct: N-terminal (N-TgCEN1, 22–94 aa); made in house
Sequence (A0A125YHX7 22-94): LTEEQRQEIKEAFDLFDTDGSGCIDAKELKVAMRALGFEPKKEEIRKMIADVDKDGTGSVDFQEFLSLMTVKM
run-description: ITC titration of TgSFI1 peptides into N-TgCEN1
Assay type: binding
test-parameters: 25 °C, 50 mM Tris-HCl, 150 mM KCl pH 7.5, 5 mM CaCl2, mean ± SE of triplicate, dash = no binding observed, SEM
pKd: −log10 of the molar value. Where no end group is shown, it is not given here.

sequence-input: LATQARRQALLRRALQAWTL [R16]
pKd: 6.40

###

target-or-test-system: TgCEN1 (recombinant, lacking the first 21 residues) (Toxoplasma gondii, UniProt A0A125YHX7)
Construct: TgCEN1 (lacking the first 21 residues) and its N-terminal (N-TgCEN1, 22–94 aa) and C-terminal (C-TgCEN1, 95–169 aa) domains; made in house
Sequence (A0A125YHX7 22-169): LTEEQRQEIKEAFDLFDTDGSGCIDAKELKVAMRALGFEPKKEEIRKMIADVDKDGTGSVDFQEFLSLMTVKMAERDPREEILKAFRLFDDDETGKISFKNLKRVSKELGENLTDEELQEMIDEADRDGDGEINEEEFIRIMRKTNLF
run-description: ITC titration of TgSFI1 peptides into TgCEN1
Assay type: binding
test-parameters: Kd, 25 °C, 50 mM Tris-HCl, 150 mM KCl pH 7.5, 5 mM CaCl2, single binding site, mean ± SE of triplicate, SEM
pKd: −log10 of the molar value. Where no end group is shown, it is not given here.
Entries annotated with measured pKd
reported-metric: pKd

sequence-input: VVEKQKRSSLRTAWRGWR [R31]
observed-measurement: 5.54
//
sequence-input: AEATVRERRVRRAFRAWR [R5]
observed-measurement: 6.30
//
sequence-input: AEAAAFLLPLHRIFSRWR [R24]
observed-measurement: 5.47
//
sequence-input: LQRTLRDARIRAAWAAWR [R12]
observed-measurement: 6.30
//
sequence-input: RVEAIGDRLSLRRGFVTWRL [R17]
observed-measurement: 6.10
